- MEASUREMENT_TARGET: Metabotropic glutamate receptor 8 (Rattus norvegicus)
- ASSAY_PROCEDURE: mGluR8 Gi/Go-coupled signaling modulation – cell-based, rat, thallium flux, HTS, primary screen (AID 488969)
- CONDITION_INFO: HEK293 rat mGluR8, GIRK thallium flux, FluoZin2; at 10 µM; stronger effect = higher value; submaximal glutamate (EC20) added with thallium
Over roughly 110,000 compounds, “z-score” has its median near -0.1; the highest 2% begin near 2. For the sample, the highest values were picked, then their nearest neighbours and some compounds at random.
Decide by z-score: equal to or exceeding 0.8 means condition met, less means condition not met.

Example cases with answers are listed next.
{"COMPOUND": "CC(C)OC(=O)n1c(=S)oc2ccccc21", "CAT": "condition not met"}
{"COMPOUND": "CCOC(=O)NC1(NCC(C)C)Oc2ccccc2O1", "CAT": "condition not met"}
{"COMPOUND": "CCOC(=O)CSc1n[nH]c(NC(=O)c2cccc(C(F)(F)F)c2)n1", "CAT": "condition not met"}
{"COMPOUND": "COc1ccc(N2CCN(C(=O)CCCn3c(=S)[nH]c4cc5c(cc4c3=O)OCO5)CC2)cc1", "CAT": "condition not met"}
{"COMPOUND": "CCN1CNC(=S)N(c2ccccc2OC)C1", "CAT": "condition not met"}

Identify whether the reported z-score of the following compound is 0.8 or greater: "COc1cc(/C=N/NC(=O)c2cc3ccccc3cc2O)ccc1OCCN1CCCCC1"
condition not met

Identify whether the reported z-score of the following compound is 0.8 or greater: "CCOC(=O)CSc1n[nH]c(NC(=O)c2cccc(C)c2)n1"
condition met

Identify whether the reported z-score of the following compound is 0.8 or greater: COC(=O)c1ccc(NC(=O)C23CCC(C)(C(=O)O2)C3(C)C)cc1 (stereo unspecified)
condition met

Identify whether the reported z-score of the following compound is 0.8 or greater: O=C(NCC1CCCO1)C1CC1(c1ccccc1)c1ccccc1 (stereo unspecified)
condition met

Identify whether the reported z-score of the following compound is 0.8 or greater: COC(=O)c1cc(NC(=O)C23CCC(C)(C(=O)O2)C3(C)C)cc(C(=O)OC)c1 (stereo unspecified)
condition not met

----------
- MEASUREMENT_TARGET: Metabotropic glutamate receptor 8 (Rattus norvegicus) (UniProt P70579)
- Sequence (P70579 whole entry, looked up): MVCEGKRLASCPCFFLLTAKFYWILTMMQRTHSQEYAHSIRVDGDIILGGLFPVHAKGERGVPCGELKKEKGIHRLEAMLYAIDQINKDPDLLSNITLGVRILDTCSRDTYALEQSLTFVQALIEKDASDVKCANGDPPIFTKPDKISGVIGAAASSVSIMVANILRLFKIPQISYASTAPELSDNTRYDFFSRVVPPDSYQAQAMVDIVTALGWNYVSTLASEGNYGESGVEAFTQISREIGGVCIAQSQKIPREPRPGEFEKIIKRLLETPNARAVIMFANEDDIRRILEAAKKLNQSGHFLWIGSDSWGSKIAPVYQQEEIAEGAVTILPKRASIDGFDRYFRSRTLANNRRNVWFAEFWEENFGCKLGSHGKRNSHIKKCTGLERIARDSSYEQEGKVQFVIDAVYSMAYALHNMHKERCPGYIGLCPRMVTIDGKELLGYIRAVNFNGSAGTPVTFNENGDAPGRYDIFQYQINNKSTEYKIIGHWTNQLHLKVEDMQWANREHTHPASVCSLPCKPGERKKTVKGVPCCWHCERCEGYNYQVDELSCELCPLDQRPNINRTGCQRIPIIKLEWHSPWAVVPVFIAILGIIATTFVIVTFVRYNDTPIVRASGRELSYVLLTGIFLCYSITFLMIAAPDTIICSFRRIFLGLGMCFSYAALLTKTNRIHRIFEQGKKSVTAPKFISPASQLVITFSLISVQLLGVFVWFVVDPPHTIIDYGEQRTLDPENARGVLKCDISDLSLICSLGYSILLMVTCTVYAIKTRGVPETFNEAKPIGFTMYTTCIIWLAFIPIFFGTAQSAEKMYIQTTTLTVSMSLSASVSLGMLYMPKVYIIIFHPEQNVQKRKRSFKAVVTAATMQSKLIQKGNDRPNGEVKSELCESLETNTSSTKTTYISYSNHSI
- ASSAY_PROCEDURE: mGluR8 Gi/Go-coupled signaling modulation – cell-based, rat, thallium flux, HTS, primary screen (AID 488969)
- CONDITION_INFO: HEK293 rat mGluR8, GIRK thallium flux, FluoZin2; at 10 µM; stronger effect = higher value; submaximal glutamate (EC20) added with thallium
Over roughly 110,000 compounds, “z-score” has its median near -0.1; the highest 2% begin near 2. Only a selection was taken, and the highest values are over-represented in it overall.
Decide by z-score: equal to or exceeding 0.3 means yes, less means no.

Identify whether the reported z-score of the following molecule is 0.3 or greater: Cc1cc2cc(C(c3nnnn3C(C)(C)C)N(Cc3ccco3)CC3CCCO3)c(=O)[nH]c2cc1C (stereo not given)
no

Identify whether the reported z-score of the following molecule is 0.3 or greater: COc1ccc(CN2C(=O)c3ccccc3C(/C=N\OCc3ccc(F)cc3)C2=O)cc1 (stereo not given)
yes

Identify whether the reported z-score of the following molecule is 0.3 or greater: COc1ccc(CN2C(=O)c3ccccc3C(/C=N/OCc3ccc(Cl)cc3)C2=O)cc1 (stereo not given)
yes

Identify whether the reported z-score of the following molecule is 0.3 or greater: "CC(C)N(Cc1nc(-c2ccccc2)no1)C(=O)CCCN1C(=O)c2ccccc2C1=O"
no

Identify whether the reported z-score of the following molecule is 0.3 or greater: "Cc1ccc(Nc2nc(Oc3ccc(=O)[nH]n3)nc(N(C)C)n2)cc1"
no

Identify whether the reported z-score of the following molecule is 0.3 or greater: "COc1ccc(CCNC(=O)C2CCN(S(=O)(=O)c3ccc(OC)c(OC)c3)CC2)cc1"
no

Identify whether the reported z-score of the following molecule is 0.3 or greater: "Cc1ccc(Nc2nc3nonc3nc2N(C)C)cc1"
no

Identify whether the reported z-score of the following molecule is 0.3 or greater: "CC(=O)c1cccc(NC(=O)CSc2nnc(-c3cccnc3)o2)c1"
no

Identify whether the reported z-score of the following molecule is 0.3 or greater: "CCN(CC)c1nc2nonc2nc1N(CC)CC"
yes

----------
- MEASUREMENT_TARGET: Metabotropic glutamate receptor 8 (Rattus norvegicus) (UniProt P70579)
- ASSAY_PROCEDURE: mGluR8 Gi/Go-coupled signaling modulation – cell-based, rat, thallium flux, HTS, primary screen (AID 488969)
- CONDITION_INFO: HEK293 rat mGluR8, GIRK thallium flux, FluoZin2; at 10 µM; stronger effect = higher value; submaximal glutamate (EC20) added with thallium
Whole data set: some 110,000 compounds, median “z-score” near -0.1, cut for the highest 2% near 2. Many of the other results were omitted from the sample, so the highest values are more common in it than they were.
MEASURED_ATTRIBUTE: z-score
One number for each entry.

Solved entries:
{"MOLECULE": "Nc1ccccc1SCC(=O)Nc1ccc(N2CCOCC2)cc1", "MEASURED_VALUE": 2.53}
{"MOLECULE": "O=C(COc1ccccc1Cl)Nc1nc(-c2cccs2)cs1", "MEASURED_VALUE": 0.4}
{"MOLECULE": "O=C(COc1ccccc1)Nc1nccs1", "MEASURED_VALUE": 1.35}
{"MOLECULE": "O=C(COc1ccccc1)Nc1nc(-c2cccs2)cs1", "MEASURED_VALUE": 2.15}
{"MOLECULE": "O=C(CSc1ncccn1)Nc1ccc(N2CCOCC2)cc1", "MEASURED_VALUE": -0.202}
{"MOLECULE": "Cc1c(NC(=O)/C(C#N)=C/c2cccs2)c(=O)n(-c2ccccc2)n1C", "MEASURED_VALUE": 0.559}
{"MOLECULE": "CCCCn1c(SCC(=O)NC(C)CC)nc2ccc(N3CCOCC3)cc2c1=O (stereo not drawn)", "MEASURED_VALUE": 0.126}
{"MOLECULE": "COC(=O)c1sc(NC(=O)/C=C/c2ccc(C)o2)nc1C", "MEASURED_VALUE": -0.15}
{"MOLECULE": "Cc1ccc2nc(-c3ccc(N4C(=N)SC5CS(=O)(=O)CC54)cc3)sc2c1 (stereo not drawn)", "MEASURED_VALUE": 2.09}
{"MOLECULE": "CC(=O)Nc1nc(-c2cccs2)cs1", "MEASURED_VALUE": -0.281}

Parameters: items (list). Returns: z-score for each item.
1. Cc1cccc(N=C2NC(=O)/C(=C/C=C/c3ccco3)S2)c1C
2. O=C(CSc1ccccc1)Nc1ccc(N2CCOCC2)cc1

[3, 0.00596]

Parameters: items (list). Returns: z-score for each item.
1. CC(=O)N=C1SC2CS(=O)(=O)CC2N1c1ccc(-c2nc3ccc(C)cc3s2)cc1 (stereo not drawn)
2. CCCC(=O)N=C1SC2CS(=O)(=O)CC2N1c1ccc(-c2nc3ccc(C)cc3s2)cc1 (stereo not drawn)
3. Cn1cnnc1SC(C(=O)Nc1ccc(F)cc1)c1ccccc1 (stereo not drawn)
4. N#CCCn1c(SCC(=O)Nc2ccc(N3CCOCC3)cc2)nc2ccccc21

1: 0.0589; 2: -0.238; 3: -0.0653; 4: 2.51

Parameters: items (list). Returns: z-score for each item.
1. O=C(Cc1ccccc1)Nc1nnc(-c2cccs2)s1
2. COc1ccc(C(=O)NCC(=O)NCC2COc3ccccc3O2)cc1 (stereo not drawn)
3. COCCn1c(SCC(=O)Nc2ccc(N3CCOCC3)cc2)nc2ccccc21
4. COc1ccccc1OCc1ccc(C(=O)NN)cc1
5. Cc1ccc(NC(=O)NC2CCN(S(=O)(=O)c3ccc(F)cc3)CC2)cc1
6. CCCCn1c(SCC(=O)Nc2ccc(OC)cc2)nc2ccc(N3CCOCC3)cc2c1=O
7. CCCCNC(=O)CSc1nc2ccc(N3CCOCC3)cc2c(=O)n1CCc1ccccc1

1: 0.154; 2: 1; 3: -0.228; 4: -0.037; 5: 0.564; 6: 4.35; 7: 1.19

----------
- MEASUREMENT_TARGET: Metabotropic glutamate receptor 8 (Rattus norvegicus)
- ASSAY_PROCEDURE: mGluR8 Gi/Go-coupled signaling modulation – cell-based, rat, thallium flux, HTS, primary screen (AID 488969)
- CONDITION_INFO: HEK293 rat mGluR8, GIRK (G protein-gated inwardly rectifying potassium channel) thallium flux, FluoZin2; at 10 µM; stronger effect = higher value; submaximal glutamate (EC20) added with thallium
The full ranking holds about 110,000 compounds; the median of “z-score” is about -0.1, and the highest 2% start at about 2. The entries come from a sample that favours the highest values as a whole.
Would you kindly list z-score for each of these compounds?
Give bare numbers.

Solved entries:
{"COMPOUND": "O=C(Nc1ccccc1Br)C(=O)N1CCCC1", "z-score": -0.0281}
{"COMPOUND": "O=C(N/N=C\\c1ccc([N+](=O)[O-])s1)c1cncc(Br)c1", "z-score": -0.156}
{"COMPOUND": "CCOC(=O)c1c(NC(=O)c2cccs2)sc(CC)c1-c1cccs1", "z-score": -0.275}
{"COMPOUND": "CC(C)NC(=S)N/N=C1\\CCCCc2ccccc21", "z-score": -0.471}
{"COMPOUND": "Cc1cccc(N/N=C(\\C(N)=O)C2=NC(C)(C)Cc3ccccc32)c1", "z-score": -0.302}

Parameters: items (list). Returns: z-score for each item.
1. COc1nc(N/N=C/c2cc3c(cc2Br)OCO3)nc(N2CCOCC2)n1
2. O=C(NC(=S)N1CCN(Cc2ccc3c(c2)OCO3)CC1)c1cccc(Br)c1

1: -0.297; 2: 9.35
